Just for reference, ChEMBL document CHEMBL4483862 is where these values come from.

test system: Plasmodium berghei; test: Luciferase/luciferin-expressing antifolate-resistant parasites were used to infect a culture of HepG2 cells that were pre-incubated with compounds. Infected hepatocytes emit light due to the luciferase reaction. Assay results are presented as the percent inhibition of light emission compared to control. […]; type: functional; conditions: sporozoite, HEPG2TOX_HILL_SLOPE 1.14, HEPG2TOX_R_SQUARED 0.782, PBLUC_HILL_SLOPE 2.47, PBLUC_R_SQUARED 0.699, read-out: LUCIFERASE INFECTION ASSAY - IC50
measure: IC50 (µM)
Respond numerically; units are µM and should not be typed.

Look up IC50: `CCOc1ccc(/C=C/c2ccc3c(Cl)cc(Cl)c(O)c3n2)cc1OC` 4.52
